Target: T1, HLA-B*2705 heavy chain with human beta 2 microglobulin on splenocytes of HLA-B27/hb2m transgenic mice (human)
T1 construct: whole, on cells; also called TG; HLA-B*27+ transgenic splenocytes
Assay: flow cytometry, HLA-B27/hb2m transgenic mouse splenocytes, antibody 0.1 ug/ml
ASSAY_METRIC: MFI (MFI)

# BINDER, READING
data = [
    ("H4H2530S (antibody, V domains shown) VH: EVQLVESGPGLVKPSQTLSLTCTVSGGSINSGGSYWSWIRQHPGKGLEWIGYIYSSGNTYYKPSLKSRVTISLDTSKNQFSLKMSSVTAADTAIYYCARDPRGITGTHYFDYWGQGTTVTVSS VL: EIVLTQSPGTLSLSPGERATLSCRTSQSISNKYLAWYQQKPGQAPRLLIYGASTRATGIPDRFSGSGSGTDFTLTISRLEPEDFAVYYCQQFGTSLFTFGPGTKVEIK", 65.8),
    ("H4H2559P (antibody, V domains shown) VH: QVQLVQSGAEVKKPGASVKVSCKASGYTFTDYFLHWVRQAPGQGLEWVGWINPNSGGTNFAQKFQGRVTMTRDTSISTAYMDLSRLRSDDTAVYYCARKAGYTSSWFDYWGQGTLVTVSS VL: DIVMTQSPDSLAVSLGERATINCKSSQSILYSFNNKNYLAWYQQKIGQPPMLLIYWASTRESGVPDRFSGSGSGTDFTLTISRLQAEDVAVYYCQQYYSSITFGQGTRLEIK", 54.6),
    ("H4H2490N2 (antibody, V domains shown) VH: QVQLVQSGADVKWPGASVKVSCRASGYTFTGYYMHWVRQAPGQGLEWMGWINPNNGGTNYAQKFQGRVTMTRDTSITTVYMELSSLISDDTAVYYCARGEDLELRNYYYYGMDVWGQGTSVTVSS VL: DIQMTQSPSSLSASVGDRVTITCRASQSISSYLNWYQQKPGKAPKLLIYAASNLQSGVPSRFSGSGFGTDFTLTISSLQSEDFATYYCQQTYSTRTFGRGTKVEIK", 262),
    ("H4H2499N (antibody, V domains shown) VH: QVQLVESGGGLVKPGGSLRLSCAASGFTFSDYYMSWIRQAPGKGLEWVSYISTSGSTIYYPDSVKGRFTISRDNAKNSLNLQMNSLRAEDTAVYYCLLHYYYGMDVWGQGTTVTVSS VL: EIVLTQSPATLSLSPGERAPLSCRASQSVSSYLAWYQQKPGQPPRLLIYDASNRATGIPARFSGSGSGTDFTLTISSLEPEDFAVYYCQQRSNWPWTFGQGTKVEIK", 170),
    ("H4H2534S (antibody, V domains shown) VH: EVQLVESGPGLVKPAQTLSLTCTVSGGSINSGGNYWSWIRQHPGKGLEWIGYIYYSGNTYYNPSLKSRVTISVDMSKNQFSLKLRSVTAADTAVYFCARDPRGITGTHHFDCWGQGTLVTVSS VL: EIVLTQSPGTLSLSPGERATLSCRTSQSVSSRYLAWYQQKPGQAPRLLIYDASSRATGIPDRFSGSGSGTDFTLTISRLEPEDFAVYYCQQFGPSLFTFGPGTKVDIK", 75.3),
]
